Test system: human Factor 7 mRNA
Assay: Antisense inhibition of human Factor 7 mRNA in HepB3 cells, lipofectin, 50 nM, real-time RT-PCR
Format: cell-based
Conditions: HepB3 cells; gapmers targeted to nucleobases 11830 to 11869 of SEQ ID NO: 1 (Table 9)
In the oligonucleotide strings, read from the 5' end, every base follows the letter of its sugar. An asterisk marks phosphorothioate; unmarked linkages are phosphodiester. Other units and linkages are bracketed, terminal groups are in braces. A string of capitals states the bases alone. e = 2'-O-(2-methoxyethyl) (MOE); [5mC] = 5-methylcytosine; d = 2'-deoxy (DNA)
I would appreciate it if you labelled entries MET when % Inhibition of human Factor 7 mRNA levels is 50% or higher, otherwise NOT MET.

Look over these answered cases.
INSERT INTO assay_data (substance, target_under_test, label_class) VALUES
  ('422095 (antisense eA*e[5mC]*eA*eA*eT*dG*dG*dT*d[5mC]*dA*dG*dG*dG*d[5mC]*dT*eG*eG*eT*eT*eT) [compound 422095]', 'human Factor 7 mRNA', 'MET'),
  ('422102 (antisense e[5mC]*eT*eG*eA*eG*dG*dA*dG*dA*d[5mC]*dA*dA*dT*dG*dG*eT*e[5mC]*eA*eG*eG) [compound 422102]', 'human Factor 7 mRNA', 'MET'),
  ('422090 (antisense eG*eG*eT*e[5mC]*eA*dG*dG*dG*d[5mC]*dT*dG*dG*dT*dT*dT*eT*eG*eG*eA*eG) [compound 422090]', 'human Factor 7 mRNA', 'NOT MET'),
  ('422174 (antisense eG*e[5mC]*eT*dG*dG*d[5mC]*dT*dG*dA*dG*dG*dA*dG*dA*d[5mC]*dA*dA*eT*eG*eG) [compound 422174]', 'human Factor 7 mRNA', 'MET'),
  ('422246 (antisense e[5mC]*eT*dG*dA*dG*dG*dA*dG*dA*d[5mC]*dA*dA*dT*dG*dG*eT*e[5mC]*eA*eG*eG) [compound 422246]', 'human Factor 7 mRNA', 'NOT MET'),
  ('422244 (antisense eG*eA*dG*dG*dA*dG*dA*d[5mC]*dA*dA*dT*dG*dG*dT*d[5mC]*eA*eG*eG*eG*e[5mC]) [compound 422244]', 'human Factor 7 mRNA', 'MET'),
  ('422169 (antisense e[5mC]*eT*eG*dA*dG*dG*dA*dG*dA*d[5mC]*dA*dA*dT*dG*dG*dT*d[5mC]*eA*eG*eG) [compound 422169]', 'human Factor 7 mRNA', 'MET'),
  ('422232 (antisense eG*eT*d[5mC]*dA*dG*dG*dG*d[5mC]*dT*dG*dG*dT*dT*dT*dT*eG*eG*eA*eG*eG) [compound 422232]', 'human Factor 7 mRNA', 'NOT MET'),
  ('422155 (antisense eG*eT*e[5mC]*dA*dG*dG*dG*d[5mC]*dT*dG*dG*dT*dT*dT*dT*dG*dG*eA*eG*eG) [compound 422155]', 'human Factor 7 mRNA', 'NOT MET'),
  ('422105 (antisense eT*eG*eG*e[5mC]*eT*dG*dA*dG*dG*dA*dG*dA*d[5mC]*dA*dA*eT*eG*eG*eT*e[5mC]) [compound 422105]', 'human Factor 7 mRNA', 'MET');

Next up:
For this substance, is measured % Inhibition of human Factor 7 mRNA levels 50% or higher? 422233 (antisense eG*eG*dT*d[5mC]*dA*dG*dG*dG*d[5mC]*dT*dG*dG*dT*dT*dT*eT*eG*eG*eA*eG) [compound 422233] NOT MET

* * *

Test system: human Factor 7 mRNA
Experiment: Antisense inhibition of human Factor 7 mRNA in HepB3 cells, lipofectin, 50 nM, real-time RT-PCR
Format: cell-based
Conditions: Example 1; HepB3 cells, lipofectin, 50 nM, ~24 h, relative to untreated control cells
Method: Antisense oligonucleotides targeted to a Factor 7 nucleic acid were tested for their effects on Factor 7 mRNA in vitro. […] After a treatment period of approximately 24 hours, RNA was isolated from the cells and Factor 7 mRNA levels were measured by real-time RT-PCR, as described herein. Factor 7 mRNA levels were adjusted according to total RNA content as measured by RIBOGREEN®. […]
In the oligonucleotide strings, read from the 5' end, every base follows the letter of its sugar. An asterisk marks phosphorothioate; unmarked linkages are phosphodiester. Other units and linkages are bracketed, terminal groups are in braces. A string of capitals states the bases alone. e = 2'-O-(2-methoxyethyl) (MOE); [5mC] = 5-methylcytosine; d = 2'-deoxy (DNA)
OUTCOME MEASURE: % Inhibition (human Factor 7 mRNA) (%)
Could you give me the number in %? Just the number is fine.

Specify reported % Inhibition (human Factor 7 mRNA) for the substance shown: 407941 (antisense eG*eA*eG*eA*e[5mC]*dG*d[5mC]*dA*dG*d[5mC]*d[5mC]*dG*dT*dT*dT*eA*eT*eT*eG*eT) [compound 407941] 65

Could you please provide reported % Inhibition (human Factor 7 mRNA) for 407950 (antisense eA*eG*e[5mC]*eT*eT*d[5mC]*d[5mC]*dA*dT*dG*dT*dG*dA*dG*dG*eG*eT*eT*e[5mC]*eA) [compound 407950] ? Thanks! 58

Indicate its recorded % Inhibition (human Factor 7 mRNA); the substance in question is 407650 (antisense e[5mC]*e[5mC]*eA*eT*eG*dT*dG*dA*dG*dG*dG*dT*dT*d[5mC]*dA*eT*eT*eT*e[5mC]*eA) [compound 407650] 39

Identify measured % Inhibition (human Factor 7 mRNA) corresponding to 407937 (antisense eG*eA*eA*eG*eG*dG*dA*dG*dA*dA*dA*dT*dA*d[5mC]*dA*eT*eT*eT*eG*eG) [compound 407937] 59

Provide only the value of recorded % Inhibition (human Factor 7 mRNA) for 407901 (antisense eT*eG*eG*eT*eG*dT*dT*dG*dA*dT*d[5mC]*dA*dG*dG*dG*eT*e[5mC]*e[5mC]*e[5mC]*e[5mC]) [compound 407901] 89

Answer with the recorded % Inhibition (human Factor 7 mRNA) of 407926 (antisense e[5mC]*e[5mC]*eA*eG*eG*dA*d[5mC]*dA*dA*d[5mC]*d[5mC]*dT*dT*dG*dG*e[5mC]*eA*e[5mC]*eT*e[5mC]) [compound 407926] only. 79

* * *

Test system: human Factor 7 mRNA
Assay: Antisense inhibition of human Factor 7 mRNA in HepB3 cells, lipofectin, 50 nM, real-time RT-PCR
Assay type: cell-based
Details: HepB3 cells; gapmers targeted to nucleobases 15188 to 15211 of SEQ ID NO: 1 (Table 13)
In the oligonucleotide strings, read from the 5' end, every base follows the letter of its sugar. An asterisk marks phosphorothioate; unmarked linkages are phosphodiester. Other units and linkages are bracketed, terminal groups are in braces. A string of capitals states the bases alone. e = 2'-O-(2-methoxyethyl) (MOE); [5mC] = 5-methylcytosine; d = 2'-deoxy (DNA)
% Inhibition of human Factor 7 mRNA levels reference
Just the number in %, nothing appended.

Example results:
INSERT INTO results (substance, result_number) VALUES
  ('422230 (antisense e[5mC]*eA*dT*dG*d[5mC]*dA*dT*dG*dG*dT*dG*dA*dT*dG*d[5mC]*eT*eT*e[5mC]*eT*eG) [compound 422230]', 65),
  ('407935 (antisense eA*eT*eG*e[5mC]*eA*dT*dG*dG*dT*dG*dA*dT*dG*d[5mC]*dT*eT*e[5mC]*eT*eG*eA) [compound 407935]', 79),
  ('422229 (antisense eA*eT*dG*d[5mC]*dA*dT*dG*dG*dT*dG*dA*dT*dG*d[5mC]*dT*eT*e[5mC]*eT*eG*eA) [compound 422229]', 71),
  ('422153 (antisense e[5mC]*eA*eT*dG*d[5mC]*dA*dT*dG*dG*dT*dG*dA*dT*dG*d[5mC]*dT*dT*e[5mC]*eT*eG) [compound 422153]', 67),
  ('422151 (antisense eT*eG*e[5mC]*dA*dT*dG*dG*dT*dG*dA*dT*dG*d[5mC]*dT*dT*d[5mC]*dT*eG*eA*eA) [compound 422151]', 68);

Indicate the recorded % Inhibition of human Factor 7 mRNA levels value for this substance: 422149 (antisense e[5mC]*eA*eT*dG*dG*dT*dG*dA*dT*dG*d[5mC]*dT*dT*d[5mC]*dT*dG*dA*eA*eT*eT) [compound 422149] 61

Provide % Inhibition of human Factor 7 mRNA levels value for the following substance: 422227 (antisense eG*e[5mC]*dA*dT*dG*dG*dT*dG*dA*dT*dG*d[5mC]*dT*dT*d[5mC]*eT*eG*eA*eA*eT) [compound 422227] 67

Supply reported % Inhibition of human Factor 7 mRNA levels belonging to this substance: 422150 (antisense eG*e[5mC]*eA*dT*dG*dG*dT*dG*dA*dT*dG*d[5mC]*dT*dT*d[5mC]*dT*dG*eA*eA*eT) [compound 422150] 74

Please report % Inhibition of human Factor 7 mRNA levels for the following substance: 422086 (antisense eT*eG*e[5mC]*eA*eT*dG*dG*dT*dG*dA*dT*dG*d[5mC]*dT*dT*e[5mC]*eT*eG*eA*eA) [compound 422086] 81

Please give the documented % Inhibition of human Factor 7 mRNA levels of 416482 (antisense e[5mC]*eA*eT*eG*eG*dT*dG*dA*dT*dG*d[5mC]*dT*dT*d[5mC]*dT*eG*eA*eA*eT*eT) [compound 416482] 64

Tell me measured % Inhibition of human Factor 7 mRNA levels for 422226 (antisense e[5mC]*eA*dT*dG*dG*dT*dG*dA*dT*dG*d[5mC]*dT*dT*d[5mC]*dT*eG*eA*eA*eT*eT) [compound 422226] please. 41

For the substance 422152 (antisense eA*eT*eG*d[5mC]*dA*dT*dG*dG*dT*dG*dA*dT*dG*d[5mC]*dT*dT*d[5mC]*eT*eG*eA) [compound 422152] , report % Inhibition of human Factor 7 mRNA levels. 74
